# TGT: MMP-9 (Homo sapiens, UniProt P14780)
# Construct: from tissue; host or cells: human polymorphonuclear leukocytes (PMN) from whole blood (New York Blood Center), PMA-stimulated supernatant
# Sequence (P14780 107-707 limits assumed): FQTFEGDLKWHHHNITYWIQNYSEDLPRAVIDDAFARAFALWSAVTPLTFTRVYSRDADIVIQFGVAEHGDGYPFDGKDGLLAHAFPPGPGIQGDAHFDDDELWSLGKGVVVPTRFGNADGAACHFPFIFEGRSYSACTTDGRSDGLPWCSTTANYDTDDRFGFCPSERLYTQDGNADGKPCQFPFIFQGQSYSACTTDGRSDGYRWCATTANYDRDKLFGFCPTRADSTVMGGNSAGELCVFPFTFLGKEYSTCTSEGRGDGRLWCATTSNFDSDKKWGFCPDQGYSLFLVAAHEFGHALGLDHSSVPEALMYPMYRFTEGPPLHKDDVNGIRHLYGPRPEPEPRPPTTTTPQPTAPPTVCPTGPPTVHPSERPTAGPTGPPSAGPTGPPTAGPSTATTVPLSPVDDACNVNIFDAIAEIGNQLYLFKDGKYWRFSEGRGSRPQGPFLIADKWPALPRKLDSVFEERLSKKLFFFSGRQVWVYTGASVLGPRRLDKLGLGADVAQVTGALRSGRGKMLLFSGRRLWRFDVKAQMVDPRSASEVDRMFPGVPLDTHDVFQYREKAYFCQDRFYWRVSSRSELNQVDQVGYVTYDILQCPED
# ASSAY REMARKS: Automated MMP Profiling Assay, MMP-9 fluorogenic
# Format: biochemical
# CONDITION SUMMARY: 96-well automated, P218
QUANTITY: log10 IC50 (log10 of the value in nM)

COMPOUND	log10 IC50
CN(C)C(=O)c1cccc(SCC(CC(=O)c2ccc(-c3ccc(Cl)cc3)cc2)C(=O)O)c1 (stereo not shown)	2.56
CC(C)COc1ccc(-c2ccc(C(=O)CC(CCCc3ccccc3)C(=O)O)cc2)cc1 (stereo not shown)	3.27
O=C(O)c1cccc(CCC(CC(=O)c2ccc(-c3ccc(Cl)cc3)cc2)C(=O)O)c1 (stereo not shown)	2.66
O=C(CC(CCN1C(=O)c2ccccc2C1=O)C(=O)O)c1ccc(-c2ccc(OCc3ccccc3)cc2)cc1 (stereo not shown)	0.90
CN(C)C(=O)c1ccccc1SCC(CC(=O)c1ccc(-c2ccc(Cl)cc2)cc1)C(=O)O (stereo not shown)	2.72
O=C(O)[C@H]1[C@H](CN2C(=O)c3cccc([N+](=O)[O-])c3C2=O)CC[C@@H]1C(=O)c1ccc(-c2ccc(Cl)cc2)cc1 (relative stereo)	0.05
CCCCCOc1ccc(-c2ccc(C(=O)[C@H]3CC[C@@H](Sc4ccccc4)[C@@H]3C(=O)O)cc2)cc1 (single isomer, unassigned)	2.29
